Where these numbers come from: patent US11286268B1

Biological target: recombinant eIF4E (Homo sapiens (Human), UniProt P06730)
Sequence (P06730 whole entry): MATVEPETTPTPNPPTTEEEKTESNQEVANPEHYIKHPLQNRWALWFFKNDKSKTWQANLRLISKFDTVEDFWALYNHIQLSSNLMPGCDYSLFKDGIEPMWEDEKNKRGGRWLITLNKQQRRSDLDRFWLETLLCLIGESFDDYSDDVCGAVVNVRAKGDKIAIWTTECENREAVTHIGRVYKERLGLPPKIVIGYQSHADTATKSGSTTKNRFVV
Assay: Fluorescence polarization competition assay for eIF4E binding potency
Details: inhibition of eIF4E/EDA-m7GDP-ATTO-550 binding by 50%; Table 4B calculated values; read-out: IC50
Reported Property: IC50 (µM)
Please reply with the bare figure in µM and do not write the unit itself.

Answered cases to consult:
| Molecule | Test Target | Reported Property | Numeric Value |
| --- | --- | --- | --- |
| Cc1nc2cc(C(F)(F)F)c(Cl)c(C#N)c2c(=O)n1CCOc1ccc(Cl)cc1-c1ccnc2c(C(=O)NS(C)(=O)=O)csc12 [compound 519] | recombinant eIF4E (Homo sapiens (Human), UniProt P06730) | IC50 | 0.0378 |
| N#Cc1cc2c(=O)n(CCOc3ccc(C(F)F)cc3-c3cccc(C(=O)O)c3)cnc2cn1 [compound 126] | recombinant eIF4E (Homo sapiens (Human), UniProt P06730) | IC50 | 8.36 |
| Cc1nc2cc(C(N)=O)cc(C#N)c2c(=O)n1CCOc1ccc(Cl)cc1-c1ccnc2c(C(=O)O)csc12 [compound 317] | recombinant eIF4E (Homo sapiens (Human), UniProt P06730) | IC50 | 0.0171 |

Next molecule, IC50 to be filled in.
-- ask Which IC50 value belongs to Cc1nc2cc(CCN(C)C)cc(C#N)c2c(=O)n1CCOc1ccc(Cl)cc1-c1ccnc2c(C(=O)O)csc12 [compound 513] ?
-- reply 0.0116

====

Target: recombinant eIF4E (Homo sapiens (Human))
Experiment: Fluorescence polarization competition assay for eIF4E binding potency
Settings: inhibition of eIF4E/EDA-m7GDP-ATTO-550 binding by 50%; Table 4B calculated values; read-out: IC50
Category | rule: reported IC50 within range, see Low: < 10 nM; Mid: ≥ 10 nM and < 30 nM; High: ≥ 30 nM

| Smiles Repr | Label Class |
| --- | --- |
| Cc1nc2cc(Cl)c(Cl)c(Cl)c2c(=O)n1CCOc1ccc(Cl)cc1-c1ccnc2c(C(=O)O)csc12 | High |
| Cc1nc2ccc(OCCN(C)C)c(C#N)c2c(=O)n1CCOc1ccc(Cl)cc1-c1ccnc2c(C(=O)O)csc12 | Mid |
| Cc1ccc(F)c(-c2ncc3cc(C)n(CCOc4ccc(Cl)cc4-c4cc(C)nc5c(C(=O)O)csc45)c(=O)c3c2C#N)n1 | Mid |

-- ask # classify by IC50 band: `Cc1cc(-c2cc(Cl)ccc2OCCn2c(C)nc3cc(C(F)(F)F)c(-c4ncc(F)cn4)c(C#N)c3c2=O)c2scc(C(=O)O)c2n1`
-- reply Low

-- ask # classify by IC50 band: `Cc1cc(-c2cc(Cl)ccc2OCCn2c(C)nc3cc(C(F)(F)F)c(-c4ncc(F)cc4F)c(C#N)c3c2=O)c2scc(C(=O)O)c2n1`
-- reply Low

-- ask # classify by IC50 band: `Cc1ccc(-c2cc(Cl)ccc2OCCn2c(C)nc3c(N(C)C)ncc(C#N)c3c2=O)c2scc(C(=O)O)c12`
-- reply High

====

Let's look at some compounds and their measured pIC50.
Molecular target: recombinant eIF4E (Homo sapiens (Human), UniProt P06730)
Assay: Fluorescence polarization competition assay for eIF4E binding potency
Conditions: inhibition of eIF4E/EDA-m7GDP-ATTO-550 binding by 50%; Table 4B calculated values; read-out: IC50
Procedure: Compounds were screened for eIF4E binding potency using a fluorescence polarization competition assay. All binding reactions were performed in fluorescence polarization buffer (FPB) containing 20 mM Tris pH 7.5, 100 mM NaCl, 1 mM DTT, and 0.02% Tween-20. Final binding reactions contained 75 nM recombinant eIF4E (Beryllium, custom order), 20 nM EDA-m^7GDP-ATTO-550 (Jena Bioscience, NU-827-550) and varying concentrations of the inhibitory compound of interest. […]
// scale note: pIC50 = -log10(conc_M); give the bare number

Answered cases to consult:
| Compound | pIC50 |
| --- | --- |
| Cc1cc(-c2cc(Cl)ccc2OCCn2c(C)cc3cnc(N(C)C)c(C#N)c3c2=O)c2scc(C(=O)O)c2n1 [compound 1002] | 8.63 |
| Cc1sc2c(-c3cc(Cl)ccc3C#CCn3c(C)nc4cc(C(F)(F)F)c(CN5CCN(C)CC5)c(C#N)c4c3=O)ccnc2c1C(=O)O [compound 643] | 9.08 |
| N#Cc1cc2c(=O)n(CCOc3ccc(Cl)cc3-c3cc(C(=O)O)c4ncccc4c3)cnc2cn1 [compound 100] | 5.46 |
| Cc1nc2cc(C(F)(F)F)cc(C#N)c2c(=O)n1CCOc1ccc(C#N)nc1-c1ccnc2c(C(=O)O)csc12 [compound 292] | 6.69 |
| O=C(O)c1cccc(-c2cc(Cl)ccc2OCCn2cnc3ccncc3c2=O)c1 [compound 12] | 5.62 |

-- ask Which pIC50 value belongs to Cc1cc(-c2cc(Cl)ccc2OCCn2c(C)nc3cnc(-c4ccccc4C)c(C#N)c3c2=O)c2scc(C(=O)O)c2n1 [compound 944] ?
-- reply 7.34

-- ask Which pIC50 value belongs to CCc1cc(-c2cc(Cl)ccc2OCCn2c(=O)[nH]c3cc(Cl)cc(C#N)c3c2=O)c2scc(C(=O)O)c2n1 [compound 1078] ?
-- reply 6.46

====

Molecular target: recombinant eIF4E (Homo sapiens (Human), UniProt P06730)
Experiment: Fluorescence polarization competition assay for eIF4E binding potency
Settings: inhibition of eIF4E/EDA-m7GDP-ATTO-550 binding by 50%; Table 4B calculated values; read-out: IC50
Mark yes only for IC50 values smaller than 60 nM; exact matches and larger values are no.

Please review the entries below; each comes with its answer.
| Molecule | Label Class |
| --- | --- |
| Cc1cc(-c2cc(Cl)ccc2OCCn2c(C)nc3cnc(-c4cccc(Cl)c4)c(C#N)c3c2=O)c2scc(C(=O)O)c2n1 | yes |
| O=C(O)c1cccc(-c2cc(Cl)ccc2OCCc2cc(C(F)(F)F)nc3nc(Nc4ccccc4)[nH]c(=O)c23)c1 | no |

-- ask Determine whether this molecule shows IC50 lower than 60 nM (ties excluded): `O=C(O)c1cccc(-c2cc(Cl)ccc2OCCn2ccc3ncncc3c2=O)c1`
-- reply no

-- ask Determine whether this molecule shows IC50 lower than 60 nM (ties excluded): Cc1nc2c(N(C)C3CCN(C)CC3F)ncc(C#N)c2c(=O)n1CCOc1ccc(Cl)cc1-c1ccnc2c(C(=O)O)csc12 (stereo not drawn)
-- reply yes

-- ask Determine whether this molecule shows IC50 lower than 60 nM (ties excluded): `N#Cc1cc2c(=O)n(CCOc3ccc(Cl)cc3-c3cccc(C(=O)O)c3)cnc2cn1`
-- reply no

-- ask Determine whether this molecule shows IC50 lower than 60 nM (ties excluded): `Cc1cc(C)c(-c2c(C(F)(F)F)cc3nc(C)n(CCOc4ccc(Cl)cc4-c4cc(C)nc5c(C(=O)O)csc45)c(=O)c3c2C#N)cn1`
-- reply yes

====

Let's look at some compounds and their measured pIC50.
Target: recombinant eIF4E (Homo sapiens (Human), UniProt P06730)
Assay: Fluorescence polarization competition assay for eIF4E binding potency
Conditions: fluorescence polarization competition, 75 nM recombinant eIF4E, 20 nM EDA-m7GDP-ATTO-550; IC50 class; read-out: elF4E FP
Description: Compounds were screened for eIF4E binding potency using a fluorescence polarization competition assay. All binding reactions were performed in fluorescence polarization buffer (FPB) containing 20 mM Tris pH 7.5, 100 mM NaCl, 1 mM DTT, and 0.02% Tween-20. Final binding reactions contained 75 nM recombinant eIF4E (Beryllium, custom order), 20 nM EDA-m^7GDP-ATTO-550 (Jena Bioscience, NU-827-550) and varying concentrations of the inhibitory compound of interest. […]
pIC50: −log10 of the molar value.

Answered cases to consult:
| Smiles Repr | pIC50 |
| --- | --- |
| Cc1cc(-c2cc(Cl)ccc2OCCn2c(C)nc3cc(C(F)(F)F)c(N4CCN(C)CC4)c(C#N)c3c2=O)c2scc(C(=O)O)c2n1 | > 7.30 |
| Cc1cc(-c2cc(Cl)ccc2OCCn2c(C)nc3cc(C(F)(F)F)c(-c4nc(C(F)F)ccc4F)c(C#N)c3c2=O)c2scc(C(=O)O)c2n1 | > 7.30 |

-- ask Which pIC50 value belongs to `Cc1cc(-c2cc(Cl)ccc2OCCn2c(C)nc3c(C)nc(-c4cccc(Cl)c4)c(C#N)c3c2=O)c2scc(C(=O)O)c2n1` ?
-- reply > 7.30

====

Target: recombinant eIF4E (Homo sapiens (Human))
Test: Fluorescence polarization competition assay for eIF4E binding potency
Settings: fluorescence polarization competition, 75 nM recombinant eIF4E, 20 nM EDA-m7GDP-ATTO-550; IC50 class; read-out: elF4E FP
Experimental: Compounds were screened for eIF4E binding potency using a fluorescence polarization competition assay. All binding reactions were performed in fluorescence polarization buffer (FPB) containing 20 mM Tris pH 7.5, 100 mM NaCl, 1 mM DTT, and 0.02% Tween-20. Final binding reactions contained 75 nM recombinant eIF4E (Beryllium, custom order), 20 nM EDA-m^7GDP-ATTO-550 (Jena Bioscience, NU-827-550) and varying concentrations of the inhibitory compound of interest. […]
Reported Property: IC50

| Compound | IC50 |
| --- | --- |
| Cc1cc(-c2cc(Cl)ccc2OCCn2c(C)nc3cc(C(F)(F)F)c(-c4ccns4)c(C#N)c3c2=O)c2scc(C(=O)O)c2n1 [compound 348] | < 50 nM |
| Cc1nc2cc(C(F)(F)F)c(N3CCNCC3)c(C#N)c2c(=O)n1CCOc1ccc(Cl)cc1-c1ccnc2ccsc12 [compound 855] | < 50 nM |
| Cc1nc2cc(C(F)(F)F)cc(C#N)c2c(=O)n1CCOc1ccncc1-c1ccnc2c(C(=O)O)csc12 [compound 285] | 50 to 1000 nM |
| COCC(F)(F)CN1CCC(N(C)c2ncc3nc(C)n(CC#Cc4ccc(Cl)cc4-c4ccnc5c(C(=O)O)csc45)c(=O)c3c2C#N)CC1 [compound 1133] | < 50 nM |
| CNc1c(Cl)cc2nc(C)n(CCOc3ccc(Cl)cc3-c3cc(C)nc4c(C(=O)O)csc34)c(=O)c2c1C#N [compound 694] | < 50 nM |

Next compound, IC50 to be filled in.
-- ask Which IC50 value belongs to Cc1nc2c(F)c(Cl)c(C(F)F)c(C#N)c2c(=O)n1CCOc1ccc(Cl)cc1-c1ccnc2c(C(=O)O)csc12 [compound 498] ?
-- reply < 50 nM
